Target: c-Met (Homo sapiens, UniProt P08581)
Construct: The cytoplasmic domain of c-Met was generated by reverse transcriptase-polymerase chain reaction; His tag (from pFastBac-HTc vector; purified on Ni-NTA/Talon); made in house; host or cells: Sf9 insect cells (baculovirus)
Sequence (P08581 956-1390 limits assumed): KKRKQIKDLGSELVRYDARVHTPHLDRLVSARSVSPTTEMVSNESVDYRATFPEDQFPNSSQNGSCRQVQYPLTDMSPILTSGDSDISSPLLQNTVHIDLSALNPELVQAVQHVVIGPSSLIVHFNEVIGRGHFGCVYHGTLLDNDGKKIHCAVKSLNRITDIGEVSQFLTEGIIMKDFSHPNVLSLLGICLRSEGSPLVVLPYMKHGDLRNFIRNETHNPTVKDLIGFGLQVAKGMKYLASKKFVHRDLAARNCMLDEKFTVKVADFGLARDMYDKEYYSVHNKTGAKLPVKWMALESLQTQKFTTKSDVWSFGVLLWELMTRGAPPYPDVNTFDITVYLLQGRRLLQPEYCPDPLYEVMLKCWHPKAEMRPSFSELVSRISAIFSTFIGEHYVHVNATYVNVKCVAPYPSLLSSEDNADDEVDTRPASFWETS
Assay: DELFIA assay for c-Met receptor kinase inhibitors
Type: biochemical
quantity name: inhibition at 10 µg/mL (%)
I only need the number, in %, no unit after it.

See these solved cases before continuing.
N#Cc1cnc2cc3c(cc2c1Nc1ccc(F)c(Cl)c1)N(CCCCCl)CCO3	42
N#Cc1cnc2cc3c(cc2c1Nc1ccc(F)c(Cl)c1)NCCO3	80
CN(C)CCCCN1CCOc2cc3ncc(C#N)c(Nc4ccc(F)c(Cl)c4)c3cc21	66

Could you now consider this next molecule?
Input CN(C)CCCC(=O)N1CCOc2cc3ncc(C#N)c(Nc4ccc(F)c(Cl)c4)c3cc21 . Output inhibition at 10 µg/mL: 50
